Test: Bone marrow erythroid progenitor colony assay, 14 days
Format: cell-based, human
Details: human, human bone marrow erythroid progenitors, read-out: Mean CC50 ± SD in Bone marrow cells Erythroid
// reported CC50 at 14 days per item
Dear colleague, please return just the value in µM, with no unit written.

Task: Using the record for COc1ccc(C[C@H](N)C(=O)N[C@H]2[C@@H](O)[C@H](n3cnc4c(N(C)C)ncnc43)O[C@@H]2CO)cc1 , report its CC50 at 14 days.
Result: 0.36

Task: Can you handle O=C(N[C@H](CO)[C@H](O)c1ccc([N+](=O)[O-])cc1)C(Cl)Cl next?
Result: 82

Task: Can you handle C[C@@]1(O)[C@H](O)[C@@H](CO)O[C@H]1n1ccc(N)nc1=O next?
Result: 99

* * *

System: Huh7
Assay: Cytotoxicity in Huh7 cells, 5-day treatment (CellTiter Glo)
Details: read-out: Mean CC50 ± SD in Hepatic cells Huh7; 5-day treatment
Measure: CC50

Task: Using the record for Nc1ccn([C@H]2CC[C@@H](CO)O2)c(=O)n1 , report its CC50.
Result: > 89 µM

* * *

Test system: mitochondrial spare respiratory capacity
Test: Oxygen consumption rate / spare respiratory capacity in PC-3 cells
Conditions: human, pH 7.4
// reported CC50 at 3 days per item
Dear colleague, please return just the value in nM, with no unit written.

O=C(N[C@H](CO)[C@H](O)c1ccc([N+](=O)[O-])cc1)C(Cl)Cl: 4500

Task: Using the record for COc1nc(N)nc2c1ncn2[C@@H]1O[C@H](COP(=O)(N[C@@H](C)C(=O)OCC(C)(C)C)Oc2cccc3ccccc23)[C@@H](O)[C@@]1(C)O (some centres unmarked) , report its CC50 at 3 days.
Result: 480

* * *

System: nuclear DNA-encoded succinate dehydrogenase (SDH-A; complex II) protein level
Assay: Nuclear protein synthesis (SDH-A, MitoBiogenesis in-cell ELISA) in PC-3 cells
Assay type: cell-based, human
Settings: human, read-out: Mean CC50 ± SD causing General cellular toxicity: Protein synthesis
Measure: CC50 at 5 days (µM)
Dear colleague, please return just the value in µM, with no unit written.

The following compounds have reported results that may help.
C[C@@]1(O)[C@H](O)[C@@H](CO)O[C@H]1n1ccc(N)nc1=O: 68
COc1ccc(C[C@H](N)C(=O)N[C@H]2[C@@H](O)[C@H](n3cnc4c(N(C)C)ncnc43)O[C@@H]2CO)cc1: 0.15

Task: Using the record for CC(C)OC(=O)[C@H](C)N[P@](=O)(OC[C@H]1O[C@@](C#N)(c2ccc3c(N)ncnn23)[C@](C)(O)[C@@H]1OC(=O)C(C)C)Oc1ccccc1 , report its CC50 at 5 days.
Result: 45

* * *

// reported CC50 per item
Tested on: Prostate cells (PC-3)
Assay: Cytotoxicity / ATP level in PC-3 cells, 5-day treatment
Details: read-out: Mean CC50 ± SD causing General cellular toxicity: ATP level; PC-3 cells, 5 days

CCOc1nc(N)nc2c1ncn2[C@@H]1O[C@@H]2COP(=O)(OC(C)C)O[C@H]2[C@@]1(C)F (stereo partly shown): > 100 µM
Nc1ccn([C@H]2CC[C@@H](CO)O2)c(=O)n1: 0.8 µM
C[C@@]1(F)[C@H](O)[C@@H](CO)O[C@H]1n1ccc(N)nc1=O: > 100 µM

Read the next record carefully.
Task: Using the record for CC(C)OC(=O)[C@H](C)N[P@](=O)(OC[C@H]1O[C@@H](n2ccc(=O)[nH]c2=O)[C@](C)(F)[C@@H]1O)Oc1ccccc1 , report its CC50.
Result: > 100 µM

* * *

System: HepG2 (galactose)
Experiment: Cytotoxicity in HepG2 (galactose) cells, 5-day treatment
Settings: read-out: Mean CC50 ± SD in Hepatic cells HepG2 (galactose); 5-day treatment
Measure: CC50

Task: Using the record for Nc1ccn([C@H]2CC[C@@H](CO)O2)c(=O)n1 [ddC, dideoxycytosine] , report its CC50.
Result: > 89 µM

* * *

// reported CC50 at 5 days per item
Experiment: Cytotoxicity in stimulated PBMCs, 5 days
Conditions: human, stimulated PBMCs
Dear colleague, please return just the value in µM, with no unit written.

The following compounds have reported results that may help.
C[C@@]1(O)[C@H](O)[C@@H](CO)O[C@H]1n1ccc(N)nc1=O: 64
C[C@@]1(F)[C@H](O)[C@@H](CO)O[C@H]1n1ccc(N)nc1=O: 100

Read the next record carefully.
Task: Using the record for COc1ccc(C[C@H](N)C(=O)N[C@H]2[C@@H](O)[C@H](n3cnc4c(N(C)C)ncnc43)O[C@@H]2CO)cc1 , report its CC50 at 5 days.
Result: 1

* * *

// reported IC50 per item
Target: RNA PolIII (Homo sapiens, UniProt O14802+Q9NW08)
Construct: complexes were isolated from rat NSN1 cells and HeLa cells, respectively
Assay: RNA PolIII inhibition assay
Settings: competing NTP 100 μM CTP and GTP, 500 μM ATP; read-out: Mean IC50 ± SD for RNA PolIII

The following molecules have reported results that may help.
C[C@@]1(O)[C@H](O)[C@@H](COP(=O)(O)OP(=O)(O)OP(=O)(O)O)O[C@H]1n1cnc2c(=O)[nH]c(N)nc21 [2′CMeGTP]: > 500 µM
C[C@@]1(O)[C@H](O)[C@@H](COP(=O)(O)OP(=O)(O)OP(=O)(O)O)O[C@H]1n1ccc(=O)[nH]c1=O [2′CMeUTP]: > 500 µM
Nc1nc2c(ncn2[C@@H]2O[C@H](COP(=O)(O)OP(=O)(O)OP(=O)(O)O)C[C@H]2O)c(=O)[nH]1 [3′deoxyGTP]: 104 µM

Task: Using the record for C[C@@]1(O)[C@H](O)[C@@H](COP(=O)(O)OP(=O)(O)OP(=O)(O)O)O[C@H]1n1cnc2c(N)ncnc21 [2′CMeATP] , report its IC50.
Result: > 500 µM

Task: Can you handle C[C@@]1(O)[C@H](O)[C@@H](COP(=O)(O)OP(=O)(O)OP(=O)(O)O)O[C@H]1n1ccc(N)nc1=O [2′CMeCTP] next?
Result: > 500 µM

* * *

Molecular target: Human DNA polymerase alpha (Homo sapiens, UniProt P09884)
Construct: isolated from HeLa cell extracts
Sequence (P09884 whole entry): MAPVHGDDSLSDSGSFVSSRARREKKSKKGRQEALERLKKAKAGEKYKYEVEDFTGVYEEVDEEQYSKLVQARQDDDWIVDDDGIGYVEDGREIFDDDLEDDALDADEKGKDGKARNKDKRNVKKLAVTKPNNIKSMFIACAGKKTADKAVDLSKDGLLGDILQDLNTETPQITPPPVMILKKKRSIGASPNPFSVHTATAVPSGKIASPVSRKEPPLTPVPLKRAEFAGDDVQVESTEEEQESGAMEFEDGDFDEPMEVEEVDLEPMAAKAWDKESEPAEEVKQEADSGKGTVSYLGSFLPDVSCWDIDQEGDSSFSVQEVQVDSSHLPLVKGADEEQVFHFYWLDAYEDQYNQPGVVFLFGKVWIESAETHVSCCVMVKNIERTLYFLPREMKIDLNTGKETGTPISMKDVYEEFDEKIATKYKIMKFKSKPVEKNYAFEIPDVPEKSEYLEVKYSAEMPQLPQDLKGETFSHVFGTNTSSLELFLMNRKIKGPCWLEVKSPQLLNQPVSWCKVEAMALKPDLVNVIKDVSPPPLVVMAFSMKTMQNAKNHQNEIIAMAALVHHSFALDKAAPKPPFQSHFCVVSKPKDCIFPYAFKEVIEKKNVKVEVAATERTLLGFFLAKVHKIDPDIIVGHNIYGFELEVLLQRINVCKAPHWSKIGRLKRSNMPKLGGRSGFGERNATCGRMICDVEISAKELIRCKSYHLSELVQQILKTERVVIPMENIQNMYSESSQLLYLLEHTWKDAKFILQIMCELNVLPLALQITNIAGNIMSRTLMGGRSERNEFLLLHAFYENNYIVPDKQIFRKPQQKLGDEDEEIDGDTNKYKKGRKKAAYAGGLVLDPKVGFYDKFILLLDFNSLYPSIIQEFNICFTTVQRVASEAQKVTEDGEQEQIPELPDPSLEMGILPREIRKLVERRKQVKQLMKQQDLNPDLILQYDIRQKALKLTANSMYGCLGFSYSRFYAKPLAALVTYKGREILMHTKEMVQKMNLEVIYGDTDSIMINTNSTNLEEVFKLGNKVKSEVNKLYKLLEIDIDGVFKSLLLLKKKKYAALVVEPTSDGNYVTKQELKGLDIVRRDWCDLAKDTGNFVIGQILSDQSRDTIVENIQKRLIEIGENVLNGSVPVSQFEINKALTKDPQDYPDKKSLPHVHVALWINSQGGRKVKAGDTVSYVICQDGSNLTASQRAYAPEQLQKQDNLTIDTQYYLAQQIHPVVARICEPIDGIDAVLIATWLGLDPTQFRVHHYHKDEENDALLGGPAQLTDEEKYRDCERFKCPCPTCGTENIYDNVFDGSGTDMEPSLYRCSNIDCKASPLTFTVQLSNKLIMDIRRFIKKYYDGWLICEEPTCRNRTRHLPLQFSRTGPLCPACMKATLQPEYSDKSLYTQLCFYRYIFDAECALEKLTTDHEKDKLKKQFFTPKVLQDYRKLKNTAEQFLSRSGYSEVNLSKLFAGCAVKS
Sequence (Q14181 whole entry partner): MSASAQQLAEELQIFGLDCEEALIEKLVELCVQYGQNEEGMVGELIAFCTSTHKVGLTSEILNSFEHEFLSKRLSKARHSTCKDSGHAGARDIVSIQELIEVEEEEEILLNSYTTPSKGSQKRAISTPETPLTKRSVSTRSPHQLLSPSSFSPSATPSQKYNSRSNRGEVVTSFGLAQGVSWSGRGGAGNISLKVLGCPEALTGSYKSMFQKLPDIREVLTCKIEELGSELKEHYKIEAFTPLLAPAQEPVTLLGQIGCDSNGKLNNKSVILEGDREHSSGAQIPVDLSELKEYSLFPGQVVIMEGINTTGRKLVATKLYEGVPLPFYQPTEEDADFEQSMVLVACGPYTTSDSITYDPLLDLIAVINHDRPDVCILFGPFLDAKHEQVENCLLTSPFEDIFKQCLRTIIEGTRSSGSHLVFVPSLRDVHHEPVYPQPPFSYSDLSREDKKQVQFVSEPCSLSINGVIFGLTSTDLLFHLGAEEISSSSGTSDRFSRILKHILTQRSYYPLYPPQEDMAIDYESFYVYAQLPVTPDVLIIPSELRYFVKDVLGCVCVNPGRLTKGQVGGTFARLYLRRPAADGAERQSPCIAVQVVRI
Sequence (P49642 whole entry partner): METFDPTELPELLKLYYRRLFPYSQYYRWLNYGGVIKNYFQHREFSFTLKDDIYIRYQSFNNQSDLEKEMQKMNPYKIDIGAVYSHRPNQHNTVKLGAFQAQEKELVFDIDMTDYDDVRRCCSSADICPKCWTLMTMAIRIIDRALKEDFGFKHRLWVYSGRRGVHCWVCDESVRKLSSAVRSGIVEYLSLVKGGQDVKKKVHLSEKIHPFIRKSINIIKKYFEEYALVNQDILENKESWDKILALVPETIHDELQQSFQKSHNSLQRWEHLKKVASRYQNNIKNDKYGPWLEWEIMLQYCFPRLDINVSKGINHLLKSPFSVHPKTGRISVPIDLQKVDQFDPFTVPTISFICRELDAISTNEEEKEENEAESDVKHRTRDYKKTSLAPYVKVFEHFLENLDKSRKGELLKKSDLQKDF
Sequence (P49643 whole entry partner): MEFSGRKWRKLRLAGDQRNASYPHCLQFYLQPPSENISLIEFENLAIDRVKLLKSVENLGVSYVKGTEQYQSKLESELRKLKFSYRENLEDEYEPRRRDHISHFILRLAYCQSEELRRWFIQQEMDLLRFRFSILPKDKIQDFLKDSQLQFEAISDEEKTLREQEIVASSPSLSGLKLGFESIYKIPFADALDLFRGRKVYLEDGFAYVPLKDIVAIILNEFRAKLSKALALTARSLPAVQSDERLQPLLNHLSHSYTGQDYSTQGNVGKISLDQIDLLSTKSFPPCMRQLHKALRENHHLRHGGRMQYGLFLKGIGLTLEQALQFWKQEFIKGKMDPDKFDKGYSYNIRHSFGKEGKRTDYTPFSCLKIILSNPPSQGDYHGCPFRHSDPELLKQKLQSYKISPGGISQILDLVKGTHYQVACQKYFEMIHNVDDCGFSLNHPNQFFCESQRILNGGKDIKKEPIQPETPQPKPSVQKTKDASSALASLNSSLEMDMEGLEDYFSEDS
Experiment: Inhibition of human DNA polymerase alpha
Settings: triphosphate form of the compound tested; read-out: Mean IC50 ± SD for DNA Pol α
Measure: IC50

The following molecules have reported results that may help.
C[C@@]1(O)[C@H](O)[C@@H](CO)O[C@H]1n1ccc(N)nc1=O: > 200 µM
[N-]=[N+]=N[C@]1(CO)O[C@@H](n2ccc(N)nc2=O)[C@H](O)[C@@H]1O: > 200 µM

Read the next record carefully.
Task: Using the record for CC(C)OC(=O)[C@H](C)N[P@](=O)(OC[C@H]1O[C@@](C#N)(c2ccc3c(N)ncnn23)[C@](C)(O)[C@@H]1OC(=O)C(C)C)Oc1ccccc1 , report its IC50.
Result: > 200 µM

* * *

// reported CC50 per item
System: Stimulated PBMCs
Assay: Cytotoxicity in stimulated PBMCs, 5 days
Conditions: read-out: Mean CC50 ± SD in PBMCs Stimulated; 5 days

O=c1[nH]cc(F)c(=O)[nH]1: > 100 µM

Task: Using the record for Nc1ccn([C@H]2CC[C@@H](CO)O2)c(=O)n1 , report its CC50.
Result: > 100 µM

* * *

Experiment: Cytotoxicity in quiescent PBMCs, 5 days
Conditions: human, quiescent PBMCs
Measure: CC50 at 5 days

The following molecules have reported results that may help.
C[C@@]1(O)[C@H](O)[C@@H](CO)O[C@H]1n1ccc(N)nc1=O: > 100 µM
COc1ccc(C[C@H](N)C(=O)N[C@H]2[C@@H](O)[C@H](n3cnc4c(N(C)C)ncnc43)O[C@@H]2CO)cc1: 4.5 µM
[N-]=[N+]=N[C@]1(CO)O[C@@H](n2ccc(N)nc2=O)[C@H](O)[C@@H]1O: > 100 µM
CCOc1nc(N)nc2c1ncn2[C@@H]1O[C@@H]2COP(=O)(OC(C)C)O[C@H]2[C@@]1(C)F (stereo partly drawn): > 100 µM
O=C(N[C@H](CO)[C@H](O)c1ccc([N+](=O)[O-])cc1)C(Cl)Cl: > 100 µM

Task: Using the record for C[C@@]1(F)[C@H](O)[C@@H](CO)O[C@H]1n1ccc(N)nc1=O , report its CC50 at 5 days.
Result: > 100 µM

* * *

Test: Spare respiratory capacity in primary rat cardiomyocytes
Conditions: Sprague Dawley, rat, primary rat neonatal cardiomyocytes
Measure: CC50 at 3 days (nM)
Dear colleague, please return just the value in nM, with no unit written.

Task: Using the record for COc1nc(N)nc2c1ncn2[C@@H]1O[C@H](COP(=O)(N[C@@H](C)C(=O)OCC(C)(C)C)Oc2cccc3ccccc23)[C@@H](O)[C@@]1(C)O (stereo partly shown) [BMS-986094] , report its CC50 at 3 days.
Result: 430
